The following are reported AC50 results, target or system D(1A) dopamine receptor (Homo sapiens, UniProt P21728). Note: assay procedure not described here.

Compound	AC50
CC(C)(C)NC[C@H](O)COc1ccccc1C1CCCC1	27.8 µM
CN(C)S(=O)(=O)c1ccc2c(c1)N(CCCN1CCC(CCO)CC1)c1ccccc1S2	0.0201 µM
Nc1ccc(S(=O)(=O)c2cnc(N)s2)cc1	> 30 µM
CCC(C)(C)c1ccc(CC(C)CN2C[C@@H](C)O[C@@H](C)C2)cc1 (stereo not given in full)	> 30 µM
CC[C@@H](C(N)=O)N1CCCC1=O	> 30 µM
CCOc1ccccc1C(N)=O [ETHENZAMIDE]	> 30 µM
CC(=O)OCC(=O)[C@@]1(O)CC[C@H]2[C@@H]3CCC4=CC(=O)C=C[C@]4(C)[C@@]3(Cl)[C@@H](Cl)C[C@@]21C [DICHLORISONE ACETATE]	> 30 µM
CC[N+]1(C)[C@@H]2CC(OC(=O)[C@H](CO)c3ccccc3)C[C@H]1[C@@H]1O[C@@H]12 (stereo not given in full)	> 30 µM
CCCNC(C)C(=O)Nc1c(C)csc1C(=O)OC (stereo not given)	> 30 µM
CCc1oc2ccccc2c1C(=O)c1cc(I)c(O)c(I)c1	10 µM

====

# Study target: 5-hydroxytryptamine receptor 2A (Homo sapiens, UniProt P28223); note: assay procedure not described here
# Sequence (P28223 whole entry): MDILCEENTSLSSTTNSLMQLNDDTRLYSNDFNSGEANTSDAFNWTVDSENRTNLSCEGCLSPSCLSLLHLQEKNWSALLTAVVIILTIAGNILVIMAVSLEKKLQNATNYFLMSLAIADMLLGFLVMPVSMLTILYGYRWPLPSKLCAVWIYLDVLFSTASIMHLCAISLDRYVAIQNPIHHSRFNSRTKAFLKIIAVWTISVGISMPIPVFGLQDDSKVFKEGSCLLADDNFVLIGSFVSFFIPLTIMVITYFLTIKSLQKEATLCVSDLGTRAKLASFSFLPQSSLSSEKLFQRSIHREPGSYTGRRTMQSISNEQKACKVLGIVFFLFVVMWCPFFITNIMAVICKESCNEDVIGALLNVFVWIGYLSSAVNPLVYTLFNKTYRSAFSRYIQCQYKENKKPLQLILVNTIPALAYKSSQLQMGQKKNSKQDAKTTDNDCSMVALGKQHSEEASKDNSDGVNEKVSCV
# Type: functional, cell-based

Compound	AC50
COc1cc2nc(N(C)CCCNC(=O)C3CCCO3)nc(N)c2cc1OC (centres undefined)	> 30 µM
CC[C@@H](C(N)=O)N1CCCC1=O	> 30 µM
CCc1c(Cl)c(O)c(Cl)c(O)c1C(=O)O[C@H]1[C@H](O)[C@H](OC)[C@H](OC/C2=C\C=C\C[C@H](O)/C(C)=C/[C@H](CC)[C@@H](O[C@@H]3OC(C)(C)[C@@H](OC(=O)C(C)C)[C@H](O)[C@@H]3O)/C(C)=C/C(C)=C/C[C@@H]([C@@H](C)O)OC2=O)O[C@@H]1C	> 30 µM
C=CCC1(C(C)CC)C(=O)NC(=O)NC1=O (centres undefined)	> 10 µM

====

# Study target: Alpha-1A adrenergic receptor (Homo sapiens); note: assay procedure not described here
# Sequence (P35348 whole entry): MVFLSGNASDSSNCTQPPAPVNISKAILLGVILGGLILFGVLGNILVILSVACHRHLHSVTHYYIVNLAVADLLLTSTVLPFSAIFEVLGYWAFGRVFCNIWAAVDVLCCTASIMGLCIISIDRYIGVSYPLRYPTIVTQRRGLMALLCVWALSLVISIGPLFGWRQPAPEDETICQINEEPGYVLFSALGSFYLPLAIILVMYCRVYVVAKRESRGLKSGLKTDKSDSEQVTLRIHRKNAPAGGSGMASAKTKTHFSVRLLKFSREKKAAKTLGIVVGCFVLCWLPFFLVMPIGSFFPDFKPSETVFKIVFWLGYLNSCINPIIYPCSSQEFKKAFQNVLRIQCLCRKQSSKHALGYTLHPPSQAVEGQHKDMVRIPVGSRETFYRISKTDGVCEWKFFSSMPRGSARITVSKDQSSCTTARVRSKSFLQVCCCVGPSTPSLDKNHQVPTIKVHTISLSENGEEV
# Type: functional, cell-based
Value kind: AC50

Molecule	Reported
COc1ccc(-c2ccc3cc(C(=O)O)ccc3c2)cc1C12CC3CC(CC(C3)C1)C2	> 30 µM
CC[C@H]1OC(=O)[C@H](C)[C@@H](O[C@H]2C[C@@](C)(OC)[C@@H](O)[C@H](C)O2)[C@H](C)[C@@H](O[C@@H]2O[C@H](C)C[C@H](N(C)C)[C@H]2O)[C@](C)(O)C[C@@H](C)CN(C)[C@H](C)[C@@H](O)[C@]1(C)O [AZITHROMYCIN]	> 30 µM
CC(C)(C)NCC(O)COc1cccc2c1CCC(=O)N2 (stereo not drawn) [CARTEOLOL]	> 30 µM

====

# Study target: Muscarinic acetylcholine receptor M2 (Homo sapiens); note: assay procedure not described here
# Sequence (P08172 whole entry): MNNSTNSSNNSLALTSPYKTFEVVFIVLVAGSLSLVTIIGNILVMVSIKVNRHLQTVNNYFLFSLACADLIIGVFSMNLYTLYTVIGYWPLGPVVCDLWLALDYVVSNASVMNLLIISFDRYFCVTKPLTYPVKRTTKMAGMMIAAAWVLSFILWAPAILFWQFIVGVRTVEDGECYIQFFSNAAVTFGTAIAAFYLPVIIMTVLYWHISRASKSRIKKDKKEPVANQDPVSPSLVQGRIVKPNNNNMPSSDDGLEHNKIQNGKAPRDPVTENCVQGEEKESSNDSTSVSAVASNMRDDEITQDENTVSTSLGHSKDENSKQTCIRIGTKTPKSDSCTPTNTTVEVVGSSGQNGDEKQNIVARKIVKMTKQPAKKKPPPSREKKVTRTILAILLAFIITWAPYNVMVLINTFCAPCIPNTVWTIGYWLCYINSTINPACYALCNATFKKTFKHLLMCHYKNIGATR
# Type: functional, cell-based

Compound	Study target	AC50
C=CCN1C[C@H](C(=O)N(CCCN(C)C)C(=O)NCC)C[C@@H]2c3cccc4[nH]cc(c34)C[C@H]21	Muscarinic acetylcholine receptor M2 (Homo sapiens)	> 30 µM
Cc1ccc(-c2cc(C(F)(F)F)nn2-c2ccc(S(N)(=O)=O)cc2)cc1	Muscarinic acetylcholine receptor M2 (Homo sapiens)	> 10 µM
CCOC(=O)[N-]c1cn(N2CCOCC2)n[o+]1	Muscarinic acetylcholine receptor M2 (Homo sapiens)	> 30 µM
COc1ccccc1N1CCN(CC(O)COc2cccc3ccccc23)CC1 (centres undefined)	Muscarinic acetylcholine receptor M2 (Homo sapiens)	> 30 µM
O=C1C(O)=C([C@H]2CC[C@H](c3ccc(Cl)cc3)CC2)C(=O)c2ccccc21	Muscarinic acetylcholine receptor M2 (Homo sapiens)	> 30 µM
Clc1ccc(CCCOCCCN2CCCCC2)cc1	Muscarinic acetylcholine receptor M2 (Homo sapiens)	15 µM
Cc1oc(=O)oc1CN1CCN(c2cc3c(cc2F)c(=O)c(C(=O)O)c2n3C(C)S2)CC1 (centres undefined)	Muscarinic acetylcholine receptor M2 (Homo sapiens)	> 30 µM
Fc1ccc(C(c2ccccc2)(c2ccccc2F)n2ccnc2)cc1 (centres undefined)	Muscarinic acetylcholine receptor M2 (Homo sapiens)	> 30 µM
C[C@@H]1O[C@@H](O[C@@H]2C=C3CC[C@@H]4[C@H](CC[C@]5(C)[C@@H](c6ccc(=O)oc6)CC[C@]45O)[C@@]3(C)CC2)[C@H](O)[C@H](O)[C@H]1O	Muscarinic acetylcholine receptor M2 (Homo sapiens)	> 30 µM
Cc1cc(C(C)(C)C)c(O)c(C)c1CC1=NCCN1	Muscarinic acetylcholine receptor M2 (Homo sapiens)	23 µM
NCC[C@H](O)C(=O)N[C@@H]1C[C@H](N)[C@@H](O[C@H]2O[C@H](CN)[C@@H](O)[C@H](O)[C@H]2O)[C@H](O)[C@H]1O[C@H]1O[C@H](CO)[C@@H](O)[C@H](N)[C@H]1O	Muscarinic acetylcholine receptor M2 (Homo sapiens)	> 10 µM
COc1cc2nc(N(C)CCCNC(=O)C3CCCO3)nc(N)c2cc1OC (centres undefined)	Muscarinic acetylcholine receptor M2 (Homo sapiens)	> 30 µM
CCCN1C[C@H](CSC)C[C@@H]2c3cccc4[nH]cc(c34)C[C@H]21 [PERGOLIDE]	Muscarinic acetylcholine receptor M2 (Homo sapiens)	> 30 µM
C[C@H]1COc2c(C3(N)CC3)c(F)cc3c(=O)c(C(=O)O)cn1c23	Muscarinic acetylcholine receptor M2 (Homo sapiens)	> 10 µM
CN(C)CC/C=C1\c2ccccc2CSc2ccccc21 [DOTHIEPIN]	Muscarinic acetylcholine receptor M2 (Homo sapiens)	1.4 µM
CC[C@@H](C(N)=O)N1CCCC1=O	Muscarinic acetylcholine receptor M2 (Homo sapiens)	> 30 µM
Cc1ccc(-n2nccn2)c(C(=O)N2CCN(c3nc4cc(Cl)ccc4o3)CC[C@H]2C)c1	Muscarinic acetylcholine receptor M2 (Homo sapiens)	> 30 µM
CC(Oc1c(Cl)cccc1Cl)C1=NCCN1 (centres undefined)	Muscarinic acetylcholine receptor M2 (Homo sapiens)	> 30 µM
COc1cc2nc(N3CCN(C(=O)c4ccco4)CC3)nc(N)c2cc1OC	Muscarinic acetylcholine receptor M2 (Homo sapiens)	> 10 µM
O=C(O)/C=C/c1ccc(Cn2ccnc2)cc1	Muscarinic acetylcholine receptor M2 (Homo sapiens)	> 30 µM
C=CCc1ccccc1OCC(O)CNC(C)C (centres undefined)	Muscarinic acetylcholine receptor M2 (Homo sapiens)	> 30 µM
CCOc1ccccc1OCC1CNCCO1 (centres undefined)	Muscarinic acetylcholine receptor M2 (Homo sapiens)	> 10 µM
Nc1nc(Cl)nc2c1ncn2[C@H]1C[C@H](O)[C@@H](CO)O1	Muscarinic acetylcholine receptor M2 (Homo sapiens)	> 30 µM
O=C(NCCNCC(O)COc1ccc(O)cc1)N1CCOCC1 (centres undefined)	Muscarinic acetylcholine receptor M2 (Homo sapiens)	> 30 µM
NC(=O)CN1CC(O)CC1=O (centres undefined)	Muscarinic acetylcholine receptor M2 (Homo sapiens)	> 30 µM
CO[C@@H]1[C@@H](O[C@@H]2O[C@H](C)[C@@H](O[C@H]3C[C@@](C)(O)[C@@H](OC(=O)CC(C)C)[C@H](C)O3)[C@H](N(C)C)[C@H]2O)[C@@H](CC=O)C[C@@H](C)[C@@H](O)/C=C/C=C/C[C@@H](C)OC(=O)C[C@H]1OC(C)=O	Muscarinic acetylcholine receptor M2 (Homo sapiens)	> 10 µM
CCN(CC)C(=O)N[C@H]1C[C@@H]2c3cccc4[nH]cc(c34)C[C@H]2N(C)C1 [TERGURIDE]	Muscarinic acetylcholine receptor M2 (Homo sapiens)	> 30 µM
COc1ccc2c3c1O[C@H]1[C@@H](O)C=C[C@H]4[C@@H](C2)N(C)CC[C@@]341	Muscarinic acetylcholine receptor M2 (Homo sapiens)	> 10 µM
C=CCC1(CC(C)C)C(=O)NC(=O)NC1=O	Muscarinic acetylcholine receptor M2 (Homo sapiens)	> 10 µM
CC(C)C[C@H]1C(=O)N2CCC[C@H]2[C@]2(O)O[C@](NC(=O)[C@@H]3C=C4c5cccc6[nH]c(Br)c(c56)C[C@H]4N(C)C3)(C(C)C)C(=O)N12	Muscarinic acetylcholine receptor M2 (Homo sapiens)	> 30 µM
Cc1cn([C@H]2C[C@H](N=[N+]=[N-])[C@@H](CO)O2)c(=O)[nH]c1=O	Muscarinic acetylcholine receptor M2 (Homo sapiens)	> 10 µM
COc1ccccc1N1CCN(CCCNc2cc(=O)n(C)c(=O)n2C)CC1	Muscarinic acetylcholine receptor M2 (Homo sapiens)	> 30 µM
CC/C(=C(\c1ccccc1)c1ccc(OCCN(C)C)cc1)c1ccccc1	Muscarinic acetylcholine receptor M2 (Homo sapiens)	> 10 µM
NC(=O)OCC(COC(N)=O)c1ccccc1 [FELBAMATE]	Muscarinic acetylcholine receptor M2 (Homo sapiens)	> 10 µM
